molecular target: 5-hydroxytryptamine receptor 1A (Homo sapiens); assay: Displacement of [3H]-8-OH-DPAT from human recombinant 5-HT1A receptor expressed in HEK293-EBNA cells after 120 mins
Sequence (P08908 whole entry): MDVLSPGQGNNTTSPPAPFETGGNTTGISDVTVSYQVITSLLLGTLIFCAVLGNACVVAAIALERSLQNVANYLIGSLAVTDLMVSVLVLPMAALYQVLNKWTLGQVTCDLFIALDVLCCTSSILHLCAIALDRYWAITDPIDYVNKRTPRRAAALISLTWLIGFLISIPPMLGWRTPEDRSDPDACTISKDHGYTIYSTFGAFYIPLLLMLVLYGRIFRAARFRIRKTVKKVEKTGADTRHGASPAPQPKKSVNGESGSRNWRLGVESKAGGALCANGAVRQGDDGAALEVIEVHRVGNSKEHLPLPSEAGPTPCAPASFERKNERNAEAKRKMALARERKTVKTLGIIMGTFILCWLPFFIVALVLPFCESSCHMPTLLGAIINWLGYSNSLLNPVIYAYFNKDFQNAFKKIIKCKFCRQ
pKi: −log10 of the molar value.

| smilesText | targetEntity | pKi |
| --- | --- | --- |
| COc1cc2c(cc1OC)CN(CCCN1CCc3c(OCCF)cccc3C1=O)CC2 | 5-hydroxytryptamine receptor 1A (Homo sapiens) | < 6.00 |

----------
assay: Displacement of [3H]-DTG from sigma 2 receptor in Wistar Hannover rat liver membranes; type: cell membranes, Membrane
// reported Ki per item

| smilesText | Ki |
| --- | --- |
| COc1cc2c(cc1OC)CN(CCCN1CCc3cccc(OC)c3C1=O)CC2 | 16.3 nM |
| COc1cc2c(cc1OC)CN(CCCN1CCc3c(OC)cccc3C1=O)CC2 | 4.24 nM |
| COc1cc2c(cc1OC)CN(CCCN1CCc3cc(F)ccc3C1=O)CC2 | 3.56 nM |
| COc1ccc2c(c1)CCN(CCCN1CCc3cc(OC)c(OC)cc3C1)C2=O | 5.74 nM |
| COc1cc2c(cc1OC)CN(CCCN1CCc3cc(OC)c(OC)cc3C1=O)CC2 | 20.1 nM |
| COc1cc2c(cc1OC)CN(CCCN1CCc3c(OCCF)cccc3C1=O)CC2 | 9.24 nM |

----------
Overview of recorded EC50 for various compounds
biological target: ATP-dependent translocase ABCB1 (Homo sapiens); assay: Activity at human MDR1 expressed in MDCK cells assessed as Calcein-AM uptake after 30 mins by fluorescence assay
Sequence (P08183 whole entry): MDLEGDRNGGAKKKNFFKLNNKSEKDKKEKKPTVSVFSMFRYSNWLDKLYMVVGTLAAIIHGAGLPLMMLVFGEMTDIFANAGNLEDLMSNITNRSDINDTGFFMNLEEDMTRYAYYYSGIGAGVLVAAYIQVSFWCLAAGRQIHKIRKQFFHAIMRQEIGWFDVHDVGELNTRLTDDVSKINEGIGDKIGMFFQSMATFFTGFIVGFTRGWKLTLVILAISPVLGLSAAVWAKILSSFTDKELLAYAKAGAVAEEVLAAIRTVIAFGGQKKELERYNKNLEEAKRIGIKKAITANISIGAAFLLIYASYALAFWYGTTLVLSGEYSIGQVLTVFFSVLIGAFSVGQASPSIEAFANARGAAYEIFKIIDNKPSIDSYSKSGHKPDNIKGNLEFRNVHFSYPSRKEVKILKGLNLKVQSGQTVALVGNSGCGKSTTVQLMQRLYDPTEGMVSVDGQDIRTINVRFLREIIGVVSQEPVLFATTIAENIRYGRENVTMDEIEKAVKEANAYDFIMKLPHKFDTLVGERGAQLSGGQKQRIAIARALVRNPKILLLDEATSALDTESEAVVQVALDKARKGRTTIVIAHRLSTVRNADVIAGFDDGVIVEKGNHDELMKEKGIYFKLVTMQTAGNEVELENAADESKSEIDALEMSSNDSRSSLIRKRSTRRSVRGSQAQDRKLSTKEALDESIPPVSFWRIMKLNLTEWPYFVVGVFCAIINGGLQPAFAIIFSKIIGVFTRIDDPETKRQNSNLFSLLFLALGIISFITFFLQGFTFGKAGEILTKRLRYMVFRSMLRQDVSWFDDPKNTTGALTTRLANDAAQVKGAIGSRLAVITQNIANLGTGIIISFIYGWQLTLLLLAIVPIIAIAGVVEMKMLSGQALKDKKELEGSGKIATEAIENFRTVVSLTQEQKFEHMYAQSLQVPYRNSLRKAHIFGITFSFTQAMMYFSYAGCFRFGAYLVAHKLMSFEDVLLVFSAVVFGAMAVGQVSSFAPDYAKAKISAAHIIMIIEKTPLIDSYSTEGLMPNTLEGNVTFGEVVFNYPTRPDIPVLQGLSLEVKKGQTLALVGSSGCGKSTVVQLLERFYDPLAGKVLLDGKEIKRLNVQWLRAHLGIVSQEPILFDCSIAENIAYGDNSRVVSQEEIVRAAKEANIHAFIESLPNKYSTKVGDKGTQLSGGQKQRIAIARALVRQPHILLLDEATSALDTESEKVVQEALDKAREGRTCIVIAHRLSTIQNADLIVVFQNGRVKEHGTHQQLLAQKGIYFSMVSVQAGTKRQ

| smilesText | unitAbbrev | EC50 |
| --- | --- | --- |
| COc1cc2c(cc1OC)CN(CC/C=C1\CCCc3c(OC)cccc31)CC2 | µM | 1.1 |
| COc1cc2c(cc1OC)CN(CCCN1CCc3c(OCCF)cccc3C1=O)CC2 | µM | 5 |

----------
Ratio Ki values, listed per item
assay: Selectivity ratio of Ki for sigma 1 receptor in guinea pig brain membranes without cerebellum to Ki for sigma 2 receptor in Wistar Hannover rat liver membranes; type: cell membranes; settings: Membrane
metric: Ratio Ki

| smilesText | metric | recordedNumber |
| --- | --- | --- |
| COc1ccc2c(c1)CCN(CCCN1CCc3cc(OC)c(OC)cc3C1)C2=O | Ratio Ki | 70 |
| COc1cc2c(cc1OC)CN(CCCN1CCc3cccc(OC)c3C1=O)CC2 | Ratio Ki | 101 |
| COc1cc2c(cc1OC)CN(CCCN1CCc3c(OCCF)cccc3C1=O)CC2 | Ratio Ki | 330 |
| COc1cc2c(cc1OC)CN(CCCN1CCc3cc(OC)c(OC)cc3C1=O)CC2 | Ratio Ki | 127 |
| COc1cc2c(cc1OC)CN(CCCN1CCc3c(OC)cccc3C1=O)CC2 | Ratio Ki | 574 |
| COc1cc2c(cc1OC)CN(CCCN1CCc3cc(F)ccc3C1=O)CC2 | Ratio Ki | 87 |

----------
pKi values by entry
biological target: Sigma non-opioid intracellular receptor 1 (Cavia porcellus); test: Displacement of (+)-[3H]-pentazocine from sigma 1 receptor in Dunkin guinea pig brain membranes without cerebellum
Sequence (Q60492 whole entry): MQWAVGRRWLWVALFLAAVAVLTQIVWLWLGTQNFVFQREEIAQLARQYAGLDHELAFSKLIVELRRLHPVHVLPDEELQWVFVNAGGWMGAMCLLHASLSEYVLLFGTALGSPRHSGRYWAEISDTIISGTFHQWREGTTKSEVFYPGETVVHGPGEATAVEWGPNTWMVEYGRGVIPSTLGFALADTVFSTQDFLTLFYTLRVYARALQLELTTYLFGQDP
pKi: −log10 of the molar value.
metric: pKi

| smilesText | recordedNumber |
| --- | --- |
| COc1cc2c(cc1OC)CN(CCCN1CCc3c(OCCF)cccc3C1=O)CC2 | 5.51 |
| COc1cc2c(cc1OC)CN(CCCN1CCc3cc(OC)c(OC)cc3C1=O)CC2 | 5.59 |
| COc1cc2c(cc1OC)CN(CCCN1CCc3cccc(OC)c3C1=O)CC2 | 5.79 |
| COc1cc2c(cc1OC)CN(CCCN1CCc3c(OC)cccc3C1=O)CC2 | 5.61 |
| COc1ccc2c(c1)CCN(CCCN1CCc3cc(OC)c(OC)cc3C1)C2=O | 6.40 |
| COc1cc2c(cc1OC)CN(CCCN1CCc3cc(F)ccc3C1=O)CC2 | 6.51 |
